experiment: Oral bioavailability in orchidectomized Sprague-Dawley rat at 30 mg/kg; format: ADME, organism-based; details: male, in vivo

- chem smiles: "CCn1cnc(CN2CCN(c3cccn4cc(-c5ccc(C(C)(C)C)cc5)nc34)CC2)c1C"
  bioavailability (%): 28

----------
assay: Half life in rat liver microsomes; format: ADME, Microsome
Form field: half-life (one value per entry).
quantity: half-life (min)

- chem smiles: "CCn1cnc(CN2CCN(c3cccn4cc(-c5ccc(C(C)(C)C)cc5)nc34)CC2)c1C"
  quantity: "half-life"
  unit abbreviation: "min"
  reading: 11
- chem smiles: "CCc1nc(CN2CCN(c3cccn4cc(-c5ccc(C(C)(C)C)cc5)nc34)CC2)c(C)[nH]1"
  quantity: "half-life"
  unit abbreviation: "min"
  reading: 21
- chem smiles: "CCn1cc(CN2CCN(c3cccn4cc(-c5ccc(C(C)(C)C)cc5)nc34)CC2)c(=O)[nH]c1=O"
  quantity: "half-life"
  unit abbreviation: "min"
  reading: 6

----------
test: Clearance in orchidectomized Sprague-Dawley rat at 3 mg/kg, iv; format: ADME, organism-based; set-up: dose 3 mg/kg, route intravenous; details: male, in vivo

- chem smiles: "CCn1cnc(CN2CCN(c3cccn4cc(-c5ccc(C(C)(C)C)cc5)nc34)CC2)c1C"
  unit abbreviation: "mL/min/kg"
  clearance: 75.1

----------
Target: Gonadotropin-releasing hormone receptor (Rattus norvegicus)
Sequence (P30969 whole entry): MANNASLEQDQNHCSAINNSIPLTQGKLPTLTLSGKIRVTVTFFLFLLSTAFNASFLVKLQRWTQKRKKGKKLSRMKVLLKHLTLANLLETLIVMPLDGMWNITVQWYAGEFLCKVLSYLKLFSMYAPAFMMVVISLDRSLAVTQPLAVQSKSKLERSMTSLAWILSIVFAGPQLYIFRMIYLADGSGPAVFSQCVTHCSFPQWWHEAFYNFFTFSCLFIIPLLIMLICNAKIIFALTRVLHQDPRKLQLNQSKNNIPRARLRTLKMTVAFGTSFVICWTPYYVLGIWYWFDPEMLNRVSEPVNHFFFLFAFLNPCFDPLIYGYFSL
Assay: Antagonist activity at GNRH receptor in rat pituitary cells assessed as inhibition of D-Trp6-GnRH-induced LH accumulation after 3 hrs by RIA
Assay type: functional, cell-based, Pituitary gland cell
Binary label based on IC50 with cut-off 900 nM: below gives true, not below gives false.

- chem smiles: "CCn1cnc(CN2CCN(c3cccc4[nH]c(-c5ccc(C(C)(C)C)cc5)nc34)CC2)c1C"
  target system: "Gonadotropin-releasing hormone receptor (Rattus norvegicus)"
  class assignment: "true"
- chem smiles: "CC(C)(C)c1ccc(-c2nc3c(N4CCN(Cc5ccc6nccnc6c5)CC4)cccc3[nH]2)cc1"
  target system: "Gonadotropin-releasing hormone receptor (Rattus norvegicus)"
  class assignment: "true"
- chem smiles: "CC(C)(C)c1ccc(-c2cn3cccc(N4CCN(Cc5ccc6nccnc6c5)CC4)c3n2)cc1"
  target system: "Gonadotropin-releasing hormone receptor (Rattus norvegicus)"
  class assignment: "false"
- chem smiles: "CCn1cnc(CN2CCN(c3cccn4cc(-c5ccc(C(C)(C)C)cc5)nc34)CC2)c1C"
  target system: "Gonadotropin-releasing hormone receptor (Rattus norvegicus)"
  class assignment: "true"
- chem smiles: "CC(C)(C)c1ccc(-c2cn3cccc(N4CCN(Cc5c[nH]c(=O)[nH]c5=O)CC4)c3n2)cc1"
  target system: "Gonadotropin-releasing hormone receptor (Rattus norvegicus)"
  class assignment: "false"
- chem smiles: "CC(C)(C)c1ccc(-c2cn3cccc(N4CCN(Cc5cnc6ccccc6n5)CC4)c3n2)cc1"
  target system: "Gonadotropin-releasing hormone receptor (Rattus norvegicus)"
  class assignment: "false"
- chem smiles: "CCc1nc(C)c(CN2CCN(c3cccc4[nH]c(-c5ccc(C(C)(C)C)cc5)nc34)CC2)[nH]1"
  target system: "Gonadotropin-releasing hormone receptor (Rattus norvegicus)"
  class assignment: "true"
- chem smiles: "CCn1cc(CN2CCN(c3cccn4cc(-c5ccc(C(C)(C)C)cc5)nc34)CC2)c(=O)[nH]c1=O"
  target system: "Gonadotropin-releasing hormone receptor (Rattus norvegicus)"
  class assignment: "true"

----------
assay: Half life in orchidectomized Sprague-Dawley rat at 3 mg/kg, iv; type: ADME, organism-based; set-up: dose 3 mg/kg, route intravenous; details: male, in vivo

- chem smiles: "CCn1cnc(CN2CCN(c3cccn4cc(-c5ccc(C(C)(C)C)cc5)nc34)CC2)c1C"
  unit abbreviation: "h"
  half-life: 1.4

----------
experiment: Volume of distribution at steady state in orchidectomized Sprague-Dawley rat at 3 mg/kg, iv; assay type: ADME, organism-based; parameters: dose 3 mg/kg, route intravenous; settings: male, in vivo, read-out: Vdss

- chem smiles: "CCn1cnc(CN2CCN(c3cccn4cc(-c5ccc(C(C)(C)C)cc5)nc34)CC2)c1C"
  unit abbreviation: "L/kg"
  Vd: 3.5

----------
test: AUC (0 to infinity) in orchidectomized Sprague-Dawley rat at 1 mg/kg, iv; type: ADME, organism-based; parameters: time infinity, dose 1 mg/kg, route intravenous; conditions: male, plasma
quantity: AUC(0-inf)

- chem smiles: "CCn1cnc(CN2CCN(c3cccc4[nH]c(-c5ccc(C(C)(C)C)cc5)nc34)CC2)c1C"
  quantity: "AUC(0-inf)"
  reading: "124 ng·h/mL"

----------
assay: Half life in orchidectomized Sprague-Dawley rat at 30 mg/kg, po; assay type: ADME, organism-based; parameters: dose 30 mg/kg, route oral; details: male, in vivo

- chem smiles: "CCn1cnc(CN2CCN(c3cccn4cc(-c5ccc(C(C)(C)C)cc5)nc34)CC2)c1C"
  half-life (h): 1.1
- chem smiles: "CCn1cnc(CN2CCN(c3cccc4[nH]c(-c5ccc(C(C)(C)C)cc5)nc34)CC2)c1C"
  half-life (h): 2.2

----------
experiment: Cmax in orchidectomized Sprague-Dawley rat at 3 mg/kg, iv; format: ADME, organism-based; design: dose 3 mg/kg, route intravenous; details: male, in vivo

- chem smiles: "CCn1cnc(CN2CCN(c3cccn4cc(-c5ccc(C(C)(C)C)cc5)nc34)CC2)c1C"
  unit abbreviation: "ng/mL"
  Cmax: 1760

----------
assay: Cmax in orchidectomized Sprague-Dawley rat at 1 mg/kg, iv; format: ADME, organism-based; set-up: dose 1 mg/kg, route intravenous; conditions: male, in vivo

- chem smiles: "CCn1cnc(CN2CCN(c3cccc4[nH]c(-c5ccc(C(C)(C)C)cc5)nc34)CC2)c1C"
  Cmax / ng/mL: 458

----------
biological target: Gonadotropin-releasing hormone receptor (Rattus norvegicus, UniProt P30969); assay: Displacement of [125I]D-Trp6-GnRH from rat recombinant GNRH receptor by scintillation counting
quantity: IC50 (nM)

- chem smiles: "CC(C)(C)c1ccc(-c2cn3cccc(N4CCN(Cc5c[nH]c(=O)[nH]c5=O)CC4)c3n2)cc1"
  quantity: "IC50"
  reading: 95
- chem smiles: "CC(C)(C)c1ccc(-c2nc3c(N4CCN(Cc5ccc6nccnc6c5)CC4)cccc3[nH]2)cc1"
  quantity: "IC50"
  reading: 72
- chem smiles: "CC(C)(C)c1ccc(-c2cn3cccc(N4CCN(Cc5ccc6nccnc6c5)CC4)c3n2)cc1"
  quantity: "IC50"
  reading: 81
- chem smiles: "CCn1cnc(CN2CCN(c3cccn4cc(-c5ccc(C(C)(C)C)cc5)nc34)CC2)c1C"
  quantity: "IC50"
  reading: 12
